Experiment: Displacement of [3H]flumazenil from GABAA receptor in Wistar rat cortical membrane preincubated for 15 mins
Assay type: cell membranes
experimental-endpoint: Ki (nM)
Answer in nM, number only, no unit symbol.

Requested read-out: Ki. Entry: `COc1ccc(-c2ccc3cc(OC)ccc3[o+]2)cc1`
18

Pending molecule:
Endpoint output: Ki of `COc1ccc(-c2ccc3cc(Br)ccc3[o+]2)cc1` . Value?
66

* * *

Assay: Displacement of [3H]flumazenil from GABAA receptor in Wistar rat cortical membrane
Format: cell membranes
As shown below, each of these compounds has a reported pKi value.
The value called pKi is obtained by taking minus log10 of the concentration in mol/L.

Solved cases (3 shown):
Item `COc1ccc(-c2ccc3cc(OC)c(O)cc3[o+]2)cc1` has what recorded pKi?
5.11

Subsequent entry: `COc1ccc(-c2ccc3cc(O)ccc3[o+]2)cc1`
6.49

Same thing, different compound: `COc1ccc(-c2ccc3ccccc3[o+]2)cc1`
6.32

More entries:
Query (compound): `COc1ccc2ccc(-c3ccccc3)[o+]c2c1` ; field requested: pKi
5.74

* * *

Experiment: Displacement of [3H]flumazenil from GABAA receptor in Wistar rat cortical membrane
Assay type: cell membranes
experimental-endpoint: pKi
pKi is a log-scale quantity: -log10 of the concentration expressed in molar.

Which pKi is listed for `COc1ccc(-c2ccc3cc(OC)ccc3[o+]2)cc1` ?
7.22

Could you do the same for `COc1ccc(-c2ccc3cc(Br)ccc3[o+]2)cc1` , please?
6.85

Continuing:
I have this compound here, `COc1ccc(-c2ccc3ccc(OC)cc3[o+]2)cc1` , and I need its recorded pKi.
5.92
